- assay summary: Fraction unbound in mouse plasma at 5 uM after 4 hrs by LC-MS/MS analysis
- Type: ADME, cell-free
The label is rule met for fraction unbound at 4 h, 5 µM below 0.02 and rule not met for fraction unbound at 4 h, 5 µM equal to or exceeding 0.02.

Take a look at these entries with their results.
{"columns": ["compound", "class label"],
 "data": [
  ["O=C(NCc1ccc(S(=O)(=O)c2cccc(C(F)(F)F)c2)cc1)c1cc2cnccc2[nH]1", "rule met"],
  ["O=C(NCc1ccc(S(=O)(=O)c2ccc(N3CCOCC3)nc2)cc1)c1cc2ccncc2o1", "rule met"],
  ["O=C(NCc1ccc(S(=O)(=O)c2cccc(C(F)(F)F)c2)cc1)c1cc2ccncc2o1", "rule met"]
]}

Now take the following compound into account.
Qu. Does this compound meet the criterion fraction unbound at 4 h, 5 µM < 0.02? "O=C(NCc1ccc(S(=O)(=O)c2ccc(N3CCOCC3)nc2)cc1)c1cnc2nccn2c1"
Ans. rule not met

----------
- assay summary: Metabolic stability in human liver microsomes assessed as compound remaining at 1 uM after 30 mins LC-MS analysis
- Format: ADME, Microsome
- setup conditions: liver microsomes, read-out: Stability
test readout: remaining at 0.5 h, 1 µM (%)
Your answer is read as %, so omit the unit and give the number.

Qu. Determine from records and report remaining at 0.5 h, 1 µM for "O=C(NCc1ccc(S(=O)(=O)c2cccc(C(F)(F)F)c2)cc1)c1ccc2nccn2c1"
Ans. 26

Qu. Please supply the value of reported remaining at 0.5 h, 1 µM for the item "O=C(NCc1ccc(S(=O)(=O)c2ccccc2)cc1)c1cn2ccnc2cn1"
Ans. 87

----------
Below are IC50 values recorded for Nicotinamide phosphoribosyltransferase (Homo sapiens, UniProt P43490).
Reply with the number and its unit after it.

Consider the following illustrative entries.
{"columns": ["input smiles", "test readout", "result"],
 "data": [
  ["O=C(NCc1ccc(S(=O)(=O)N2CCCCC2)cc1)c1cc2ccncc2s1", "IC50", "11 nM"],
  ["O=C(NCc1ccc(S(=O)(=O)N2CCCCC2)cc1)c1ccc2nc[nH]c2c1", "IC50", "310 nM"]
]}

Consider the additional molecule presented here.
Qu. Consider the molecule "O=C(NCc1ccc(S(=O)(=O)N2CCCCC2)cc1)c1ccc2nccn2c1" tested on Nicotinamide phosphoribosyltransferase (Homo sapiens, UniProt P43490); state its IC50.
Sequence (P43490 whole entry): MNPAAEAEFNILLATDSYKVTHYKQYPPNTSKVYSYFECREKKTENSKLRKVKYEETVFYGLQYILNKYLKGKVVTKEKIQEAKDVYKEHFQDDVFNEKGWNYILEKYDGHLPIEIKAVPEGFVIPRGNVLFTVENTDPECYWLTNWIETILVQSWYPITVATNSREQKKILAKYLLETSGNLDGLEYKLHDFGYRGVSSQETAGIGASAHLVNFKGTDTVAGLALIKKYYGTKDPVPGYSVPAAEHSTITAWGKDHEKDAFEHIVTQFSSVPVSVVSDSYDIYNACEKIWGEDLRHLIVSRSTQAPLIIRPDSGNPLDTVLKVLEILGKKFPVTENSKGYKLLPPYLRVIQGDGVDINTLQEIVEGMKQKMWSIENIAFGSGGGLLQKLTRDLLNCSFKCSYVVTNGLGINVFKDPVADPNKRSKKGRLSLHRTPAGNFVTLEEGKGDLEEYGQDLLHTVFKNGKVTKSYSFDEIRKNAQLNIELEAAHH
Ans. 28 nM

----------
- assay summary: Intrinsic clearance in human hepatocytes at 1 uM after 10 mins by LC-MS/MS analysis
- Type: ADME, cell-based, Hepatocyte
- setup conditions: read-out: CLH
Note to self: CLint scaled at 1 µM under 0.6 L/h/kg means Met, ties and anything higher get Not met.

{"columns": ["input smiles", "class label"],
 "data": [
  ["O=C(NCc1ccc(S(=O)(=O)c2cccc(C(F)(F)F)c2)cc1)c1cc2ccncc2s1", "Not met"],
  ["O=C(NCc1ccc(S(=O)(=O)c2cc(F)cc(F)c2)cc1)c1cnc2nccn2c1", "Met"],
  ["O=C(NCc1ccc(S(=O)(=O)c2cc(F)cc(F)c2)cc1)c1cc2cnccc2[nH]1", "Met"],
  ["N#CN=C(NCCCCCCOc1ccc(Cl)cc1)Nc1ccncc1", "Met"]
]}

Qu. Is CLint scaled at 1 µM strictly under 0.6 L/h/kg for the entry "O=C(/C=C/c1cccnc1)NCCCCC1CCN(C(=O)c2ccccc2)CC1" ?
Ans. Not met

Qu. Item "O=C(NCc1ccc(S(=O)(=O)c2ccc(N3CCOCC3)nc2)cc1)c1cc2ccncc2o1" : CLint scaled at 1 µM beneath 0.6 L/h/kg, strictly?
Ans. Not met

Qu. Could you please tell me whether CLint scaled at 1 µM recorded for "O=C(NCc1ccc(S(=O)(=O)c2ccc(N3CCOCC3)nc2)cc1)c1cnc2nccn2c1" is less than 0.6 L/h/kg?
Ans. Met

The values you see were collected from ChEMBL document CHEMBL2417368.
